Values from ChEMBL document CHEMBL1201862

System: NCI-H522
measurement-description: NCI tumour cell line growth inhibition, 48 h
Activity calls are given as the source filed them. Rule as the data show it: active = GI50 up to about 1.1 µM and inactive = higher.
Listed molecules paired with reported GI50

Please review the entries below; each comes with its answer.
molecule: O=C1NC(=S)NC1C(Cc1ccccc1)c1ccco1 (stereo unspecified)
GI50: > 100 µM (inactive)

molecule: CSc1nc(C)cc(=O)n1C1OC(COC(C)=O)C(OC(C)=O)C(OC(C)=O)C1OC(C)=O (stereo unspecified)
GI50: > 100 µM (inactive)

molecule: CCOC(=O)/C(C#N)=C\c1ccc(N(CCC(=O)O)CCC(=O)O)c(I)c1
GI50: > 10 µM (inactive)

molecule: COc1ccc(N2C(=O)C3c4[nH]c5c(C)cccc5c4C4CCC(c5ccccc5)CC4C3C2=O)cc1 (stereo unspecified)
GI50: 3.9 µM (inactive)

molecule: COc1ccc(CC[N+]2(C)COc3cc4oc(=O)cc(C)c4cc3C2)cc1OC (stereo unspecified)
GI50: > 100 µM (inactive)

molecule: Cc1ccc2c(c1C)C(=O)C1(C2)Cc2ccc3c(c2C1=O)CCC3 (stereo unspecified)
GI50: > 100 µM (inactive)

Endpoint output: GI50 of `Cc1ccc(OCCn2cc(Nc3ccccc3)c(=O)[nH]c2=O)cc1` . Value? > 100 µM (inactive)

Quick one: GI50 of COc1ncnc2c(Cl)c(C(O)c3ccccc3)c(Cl)cc12 (stereo unspecified) ? 31.3 µM (inactive)

Reported GI50 for CC(C)CC(=O)CC(O)C(Cl)(Cl)Cl (stereo unspecified) : what is it? 3.95 µM (inactive)

Query (molecule): `O=C1[C@@H](O)[C@@H]2CCCC[C@@]23CCCN13` ; field requested: GI50 > 100 µM (inactive)

Look up GI50: NC(=O)C(N)CC12CC3CC(CC(C3)C1)C2 (stereo unspecified) 15 µM (inactive)
